test: yeast display, Sf9 membrane polyspecificity reagent, FACS + sequencing; frameworks hold sequencing errors
Assay endpoint: polyreactivity (PSR sort gate)

Here are 5 sequences together with their reported answers.
[[record]]
record_sequence = "QVQLVESGGGLVQAGGSLRLSCAASGRILKWYAMGWYRQAPGKERELVAAISARGGSTFYADSVKGRFTISRDNAKNTVYLQMNSLKPEDTAVYYCNTYYRGGPYDVAYDYWGQGTEVTVSS"
value_observed = "high polyreactivity"

[[record]]
record_sequence = "QVQLVESGGGLVQAGGSLRLSCAASGSTFYYYSMGWYRQAPGKERELVASISDDGSTNYADSVKGRFTISRDNAKNTVYLQMNSLKPEDTAVYYCAAVWWHQFGSAWYQMGYWGQGTQVTVSS"
value_observed = "low polyreactivity"

[[record]]
record_sequence = "QVQLVESGGGLVQAGGSHRLSCAASGYIFQWNAMGWYRQAPGKERELVATISRRGGSTYYADSVKGRFTISRDNAKNTVYLQMNSLKPEDTAVYYCNAVFGSYKDYGYWGQGTQVTVSS"
value_observed = "low polyreactivity"

[[record]]
record_sequence = "QVQLVESGAGIVQAGGSLRLSCAASGRIFRYNAMGLYRQAPGKERELVAAITWSGVSTYYAHSVKGRFTISRDTAKITVFLQMNSLYPEDTGVYYCNGRRWPAWSSYDYWGQGTQVNVSS"
value_observed = "high polyreactivity"

[[record]]
record_sequence = "QVQLVESGGGLVQAGGSLRLSCAASGFIFGYYAMGWYRQAPRKERELVAAISQSTGSTYYADSVKGRFSNSRDNAKNTVYLQMNSLKPEDTAVYYCNAEGPEVTTWGYVYWDWGYGYWGQGTQVTVSS"
value_observed = "low polyreactivity"


Return reported polyreactivity (PSR sort gate); argument: QVQLVESGGGLVQAGGSLRLSCAASGGIFVPYAMGWYRQAPGKERELVAGITSGGSTNYADSVKGRFTISRDNAKNTVYLQMNSLKPVDTAVYYCAARRRPGGRYKSRVWYDYWGQGTQVTVSS high polyreactivity

Please answer likewise for QVQLVESGGGLVQAGGSLRVSCAASGSTFQYNAMGWYRQAPGKERELVAVITRRGGRTYYADSVKGRFTISRDNAKNSVYLQLNSLKAEDTAVYYCAAYFDYTHRFYYWGQGTQVTVSS high polyreactivity

Please answer likewise for QDQLVESGGGLVQAGGSLRLTCAASGFNYRRNAMGWYRQAPGKERELVAAITASGGRTYYADSVKGRFTISRDNAKNTVYLQMNSLKPEDTAVDYCARDTAGFTRFSSKYDYWGQGTQVTLSS high polyreactivity

Please answer likewise for QVQLVESGGGLVQAGGSLRLSCAASGYTFTGYALGWYRQAPGKERELVAAITSIGGSTYYADSVKGRFTISRDNAKNTVYLQMNSLKPEDTAVYYCAAEGDYVYDMDYWGQGTQVTVSS low polyreactivity

Please answer likewise for QVQLVESGGGLVQAGGSLRLSCAPSGSTFSGYAMGWYRQAPGKEREFVATISISGCSTYYADSVKGRFTISRDNAKNTVYLQMNSLKPEDTAVYYCAKDSGSYRVGIYEPFPYGYWGQGTQVTVSS low polyreactivity

Please answer likewise for QVQLVETGGGLVQAGGSLRLSCAASGSIFVYYAMGWYRQAPGKERELVAAISSRGGRTYYADSVKGRFTISRDNAKHTVYLQMNSLIPEDTAVYYCAASPDYSRYWVYAPNRRLGYWGQGTQVTVSS high polyreactivity
